Origin of measurements: patent US20130030012A1

# STUDY SYSTEM: Lp-PLA2 in human plasma (Homo sapiens, UniProt Q13093)
# Construct: from tissue; host or cells: pooled human plasma
# Sequence (Q13093 22-441): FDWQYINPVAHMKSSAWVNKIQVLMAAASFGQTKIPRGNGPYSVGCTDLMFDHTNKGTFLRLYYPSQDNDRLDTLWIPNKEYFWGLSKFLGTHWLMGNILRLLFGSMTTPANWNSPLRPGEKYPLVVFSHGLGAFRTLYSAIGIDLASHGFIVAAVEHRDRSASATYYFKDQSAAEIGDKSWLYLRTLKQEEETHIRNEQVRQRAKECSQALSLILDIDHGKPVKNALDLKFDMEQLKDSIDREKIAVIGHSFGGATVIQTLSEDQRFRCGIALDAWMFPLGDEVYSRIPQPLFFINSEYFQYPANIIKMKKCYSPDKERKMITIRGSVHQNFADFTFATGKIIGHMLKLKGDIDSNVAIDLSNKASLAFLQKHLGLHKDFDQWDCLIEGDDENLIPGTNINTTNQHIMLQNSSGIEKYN
# TEST METHOD NOTES: Lp-PLA2 human plasma assay (Thio-PAF assay)
# Assay type: biochemical
# DETAILS: pooled human plasma; read-out: pIC50 values in the thio-PAF assay (converted)
REPORTED METRIC: IC50

See these solved cases before continuing.
N#Cc1cc(COc2cc3n(c(=O)n2)CCCN3)ccc1Oc1cccc(C(F)(F)F)c1 [Example 53] = ≤ 100 nM
Cc1ccc(Oc2ccc(COc3cc4n(c(=O)n3)CCCN4C)cc2C#N)cn1 [Example 56] = ≤ 100 nM
O=c1nc(OCc2ccc(F)c(F)c2)cc2n1CCCN2 [Example 99] = ≤ 100 nM
CN1CCCn2c1cc(OCc1ccc(Oc3ccc(F)c(Cl)c3)cc1)nc2=O [Example 17] = ≤ 1000 nM
O=c1nc(OCCc2ccc(F)c(F)c2)cc2n1CCCN2 [Example 111] = ≤ 1000 nM
O=c1nc(OCc2cc(F)c(Oc3ccc(F)c(F)c3)c(F)c2)cc2n1CCCN2 [Example 91] = ≤ 100 nM
CN1CCCn2c1cc(OCc1ccc(F)cc1F)nc2=O [Example 20] = ≤ 1000 nM
CN1CCCn2c1cc(OCc1cc(F)c(Oc3cccc(Cl)c3)c(F)c1)nc2=O [Example 90] = ≤ 1000 nM

Moving on to the next molecule.
IC50 reported for this molecule CN1CCCn2c1cc(OCc1ccc(Oc3cccc(C(F)(F)F)c3)cc1)nc2=O [Example 77] : ≤ 1000 nM
